# Test description: qHTS profiling of the MIPE4 collection as inhibitors of Plasmodium falciparum (3D7) proliferation (AID 743344);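 further: scaled between DMSO vehicle wells and 0.29 µM artemisinin as full inhibition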
# Measurement parameters: P. falciparum 3D7 in erythrocytes, SYBR Green DNA fluorescence, 72 h; at 28.5 µM unless noted
# Experimental: Plasmodium falciparum is a virulent malarial parasite that kills 1-2 million people worldwide each year. […] Because mature erythrocytes lack DNA, only Plasmodium-derived DNA is detected. The SYBR Green viability assay was adapted from a method described previously (Plouffe et al., 2008). […] The following morning, fluorescence intensity at 485(14) nm excitation and 535(25) nm emission wavelengths was measured on an EnVision (Perkin Elmer) plate reader. […]
Recorded endpoint: parasite growth, % of DMSO control (%)
# output: bare number, implied unit %

Example molecules with recorded parasite growth, % of DMSO control:
>>> observed_result("Cc1ccc(NC(=O)Nc2cc(C(F)(F)F)ccc2F)cc1Nc1ccc2c(c1)NC(=O)C2=Cc1ccc[nH]1")
8.05
>>> observed_result("CCNC(=O)CCCC=CC[C@@H]1[C@H](C=CC(O)CCc2ccccc2)[C@@H](O)C[C@@H]1O (stereo partly drawn)")
63.1
>>> observed_result("NS(=O)(=O)c1cc(Cl)c(Cl)c(S(N)(=O)=O)c1")
101
>>> observed_result("Nc1ncnc2c1ncn2[C@@H]1O[C@H](CO)[C@@H](O)[C@@H]1O")
6.49

INPUT: Param item = CO[C@H]1O[C@@H]2O[C@@]3(C)CC[C@@H]4[C@@H](C)CC[C@@H]([C@H]1C)[C@@]24OO3 ; retrieve measured parasite growth, % of DMSO control.
OUTPUT: 20.7

INPUT: Param item = CC(C)(F)C[C@H](N[C@@H](c1ccc(-c2ccc(S(C)(=O)=O)cc2)cc1)C(F)(F)F)C(=O)NC1(C#N)CC1 ; retrieve measured parasite growth, % of DMSO control.
OUTPUT: 56.4

INPUT: Param item = CCCCOCCOc1nc(-c2ccc(C(=O)O)c(F)c2)sc1C ; retrieve measured parasite growth, % of DMSO control.
OUTPUT: 81.5

----------
# Test description: qHTS of pediatric cancer cell lines to identify multiple opportunities for drug repurposing: Primary screen for SK-N-MC cells (AID 1347093); further: potency means the concentration at half of the fitted maximal effect
# Measurement parameters: SK-N-MC viability, CellTiter-Glo luminescence, 48 h; series mostly up to 46 µM
Results filed as inconclusive are left out. Activity calls are given as the source filed them. Calls follow the shape of the dose curve; as a rule, active = well fitted cell-killing curve with a large enough effect; inconclusive = small, poorly fitted or top-dose-only effect; inactive = no such curve, though single readings can be large or run the other way.
Measured Potency, listed per entry for reference.

>>> observed_result("CN(C)CC[C@H](CSc1ccccc1)Nc1ccc(S(=O)(=O)NC(=O)c2ccc(N3CCN(Cc4ccccc4-c4ccc(Cl)cc4)CC3)cc2)cc1[N+](=O)[O-]")
"0.0148 µM (active)"
>>> observed_result("COc1cc([C@H]2Oc3cc([C@H]4Oc5cc(O)cc(O)c5C(=O)[C@H]4O)ccc3O[C@H]2CO)ccc1O")
"20.9 µM (active)"
>>> observed_result("CCCCn1c(=O)n(Cc2ccccc2F)c(=O)c2[nH]c(Cc3ccc(NC(C)=O)cc3)nc21")
"10.5 µM (active)"

INPUT: Param item = CCC[C@H](N[C@@H](C)C(=O)N1[C@@H]2CCCC[C@H]2C[C@H]1C(=O)O)C(=O)OCC ; retrieve measured Potency.
OUTPUT: 3.32 µM (active)

----------
# Test description: qHTS of pediatric cancer cell lines to identify multiple opportunities for drug repurposing: Primary screen for U-2 OS cells (AID 1347096); further: nearly all actives have a fitted effect of over 50% in size
# Measurement parameters: U-2 OS viability, CellTiter-Glo luminescence, 48 h; series mostly up to 46 µM
Inconclusive results are not listed. The source made the active and inactive calls. Calls come from the whole dose curve; as a rule, active = well fitted cell-killing curve with a large enough effect; inconclusive = small, poorly fitted or top-dose-only effect; inactive = flat fitted curve, though single readings scatter.
Can you answer with just one of these options? Yes = active, No = inactive

>>> category_label("COc1cc2c(cc1OC)[C@@H]1Cc3ccc(OC)c(OC)c3CN1CC2")
"No"
>>> category_label("CC(=O)NCCC(=O)N[C@@H](CCC(N)=O)C(=O)N[C@@H](CO)C(=O)N[C@@H](CCC(N)=O)C(=O)N[C@@H](CCC(N)=O)C(=O)N[C@H](C(=O)N[C@@H](Cc1ccccc1)C(=O)N[C@]1(C)CCCCCCC=CCCC[C@@](C)(C(=O)N[C@@H](CCC(N)=O)C(=O)N[C@@H](CC(N)=O)C(N)=O)NC(=O)[C@H](CC(C)C)NC(=O)[C@H](CC(C)C)NC(=O)[C@@H](CCCNC(=N)N)NC(=O)[C@H](Cc2c[nH]c3ccccc23)NC(=O)[C@H](CC(C)C)NC(=O)[C@H](CC(N)=O)NC1=O)[C@H](C)O")
"No"
>>> category_label("CC1CCN(c2cc(N3CCN(C)CC3)ccc2NC(=O)c2cc(C#N)c[nH]2)CC1")
"No"
>>> category_label("O=C(CO)N1CCC(c2[nH]nc(-c3ccc(Cl)cc3)c2-c2ccncn2)CC1")
"No"
>>> category_label("C[C@H](c1ccc(F)cc1CCCC(=O)O)N(c1cc(F)ccc1F)S(=O)(=O)c1ccc(Cl)cc1")
"No"
>>> category_label("Cc1ccc2c(=O)c3cccc(CC(=O)O)c3oc2c1C")
"No"
>>> category_label("CN(C)CCOc1ccc(C(=C(CCCl)c2ccccc2)c2ccccc2)cc1")
"No"
>>> category_label("C[C@@]1(c2cc(-c3cncnc3)c(F)cc2F)CCSC(N)=N1")
"No"

Switching to the query record.
INPUT: Fill in: this test's call for O=C(Nc1ncc(SCCN2CCCC2)s1)[C@]1(c2ccc(S(=O)(=O)C3CC3)cc2)C[C@@H]1C1CCCCC1 is ___
OUTPUT: Yes
